Tested on: Scirpus juncoides
Test: Test Example 2: herbicidal effect test by treatment during growing period in paddy rice cultivation (seven days after seeding)
Type: in vivo
Details: 120 g/10a active ingredient, assessed 14 days after treatment, dry weight vs untreated area
PARAMETER: Herbicidal rate (%) Scirpus juncoides
Numbers only, in %.

Below, each entry is followed by its recorded Herbicidal rate (%) Scirpus juncoides result.
- COMPOUND: "Cn1oc(=O)c(Cc2ccccc2NS(=O)(=O)C(F)(F)F)c1C(F)(F)F [Compound 1-78]"
  UNIT ABBREV: "%"
  QUANTITATIVE RESULT: 80
- COMPOUND: "CCC(=O)N(c1ccccc1Cc1c(C)n(C(C)c2ccccc2)oc1=O)S(=O)(=O)C(F)(F)F (stereo not drawn) [Compound 1-321]"
  UNIT ABBREV: "%"
  QUANTITATIVE RESULT: 90
- COMPOUND: "CC(=O)N(c1ccccc1Cc1c(C)n(C(C)c2ccccc2)oc1=O)S(=O)(=O)C(F)(F)F (stereo not drawn) [Compound 1-310]"
  UNIT ABBREV: "%"
  QUANTITATIVE RESULT: 90

Give measured Herbicidal rate (%) Scirpus juncoides for every item shown.
1. Cc1c(Cc2ccccc2NS(=O)(=O)C(F)(F)F)c(=O)on1Cc1ccsc1 [Compound 1-232]
2. CCOC(=O)N(c1ccccc1Cc1c(C)n(C(C)(C)C)oc1=O)S(=O)(=O)C(F)(F)F [Compound 1-604]
3. Cc1c(Cc2ccccc2N(S(=O)(=O)C(F)(F)F)S(=O)(=O)C(F)(F)F)c(=O)on1CCS(C)(=O)=O [Compound 1-1006]
4. Cc1c(Cc2ccccc2N(C(=O)C(C)C)S(=O)(=O)C(F)(F)F)c(=O)on1C(C)c1ccccc1 (stereo not drawn) [Compound 1-337]
5. CCC(C)n1oc(=O)c(Cc2ccccc2N(C(=O)OCC(C)C)S(=O)(=O)C(F)(F)F)c1C (stereo not drawn) [Compound 1-669]
6. CCCC(CC)n1oc(=O)c(Cc2ccccc2N(S(=O)(=O)C(F)(F)F)S(=O)(=O)C(F)(F)F)c1C (stereo not drawn) [Compound 1-971]

60
90
90
90
90
90

Provide reported Herbicidal rate (%) Scirpus juncoides for each item, in the same order as listed.
1. Cc1c(Cc2ccccc2N(S(=O)(=O)C(F)(F)F)S(=O)(=O)C(F)(F)F)c(=O)on1C1CCCc2ccccc21 (stereo not drawn) [Compound 1-1050]
2. Cc1c(Cc2ccccc2N(C(=O)c2ccccc2)S(=O)(=O)C(F)(F)F)c(=O)on1C(C)C [Compound 1-472]

90
90

Please supply Herbicidal rate (%) Scirpus juncoides for each of the following items, keeping them in order.
1. CSCCn1oc(=O)c(Cc2ccccc2N(S(=O)(=O)C(F)(F)F)S(=O)(=O)C(F)(F)F)c1C [Compound 1-1002]
2. Cc1c(Cc2ccccc2N(C(=O)Oc2ccccc2)S(=O)(=O)C(F)(F)F)c(=O)on1C(C)(C)C [Compound 1-762]

[80, 90]

I'm hoping you can list Herbicidal rate (%) Scirpus juncoides for every compound here, please.
1. Cc1c(Cc2ccccc2NS(=O)(=O)C(F)(F)F)c(=O)on1CCc1ccccc1 [Compound 1-216]
2. Cc1c(Cc2ccccc2NS(=O)(=O)C(F)(F)F)c(=O)on1CC(C)(C)C [Compound 1-106]

1: 90; 2: 90
